tested on: Trypanosoma brucei; experiment: Inhibition of Trypanosoma brucei AdoMetDC at 50 uM without pre-incubation for 30 mins before AdoMet substrate addition by RapidFire-mass spectrometry
Parameter threshold = 30%. Response is Condition met when inhibition meets or exceeds it, else Condition not met.

## Task Given the entry Cc1nc2c(N)ncnc2n1[C@@H]1O[C@H](CN(C)C/C=C\CNC(=O)OCc2ccccc2)[C@@H](O)[C@H]1O , answer whether its inhibition meets or surpasses 30%.
## Result Condition not met

## Task # repeat for CN(C/C=C\CN)C[C@H]1O[C@@H](n2cnc3c(N)ncnc32)[C@@H]2OC(C)(C)O[C@@H]21
## Result Condition not met

## Task # repeat for CN(C/C=C\CN)C[C@H]1O[C@@H](n2cnc3c(N(C)C)ncnc32)[C@H](O)[C@@H]1O
## Result Condition met

## Task # repeat for CCOc1ncnc2c1ncn2[C@@H]1O[C@H](CN(C)C/C=C\CN)[C@@H](O)[C@H]1O
## Result Condition met

## Task # repeat for CCOC(=O)NC/C=C\CN(C)C[C@H]1O[C@@H](n2c(C)nc3c(N)ncnc32)[C@H](O)[C@@H]1O
## Result Condition met

----------
system: Trypanosoma brucei; assay: Antitrypanosomal activity against Trypanosoma brucei Lister 427 bloodstream forms assessed as inhibition of parasite growth incubated for 48 hrs by ATP-bioluminescence cell viability assay; assay type: functional; details: Lister 427, 48 h
observationType: EC50 (nM)
Please respond with the number in nM and leave the unit unwritten.

## Task Suppose we examine the compound CN(C/C=C\CN)C[C@H]1O[C@@H](n2cnc3c(N)ncnc32)[C@@H]2OC(C)(C)O[C@@H]21 ; what EC50 value has been reported?
## Result 420

## Task # repeat for CN(C/C=C\CN)C[C@H]1O[C@@H](n2cnc3c(N)ncnc32)[C@H](O)[C@@H]1O
## Result 10

----------
test system: Trypanosoma brucei; assay: Antitrypanosomal activity against Trypanosoma brucei Lister 427 bloodstream forms assessed as inhibition of parasite growth incubated for 48 hrs by ATP-bioluminescence cell viability assay; assay type: functional; details: Lister 427, 48 h
observationType: EC50

## Task Suppose we examine the molecule CCCC(=O)NC/C=C\CN(C)C[C@H]1O[C@@H](n2cnc3c(N)ncnc32)[C@H](O)[C@@H]1O ; what EC50 value has been reported?
## Result > 25 µM

## Task # repeat for CCC(=O)NC/C=C\CN(C)C[C@H]1O[C@@H](n2cnc3c(N)ncnc32)[C@H](O)[C@@H]1O
## Result > 25 µM

## Task # repeat for CCC(=O)NC/C=C\CN(C)C[C@H]1O[C@@H](n2cnc3c(N)ncnc32)[C@H](OC(C)=O)[C@@H]1OC(C)=O
## Result > 25 µM

## Task # repeat for Cc1nc2c(N)ncnc2n1[C@@H]1O[C@H](CN(C/C=C\CN)C2CC2)[C@@H](O)[C@H]1O
## Result > 3 µM

----------
system: Liver; experiment: Half life in human pooled liver microsomes at 1 uM in presence of NADPH by LC/MS/MS method; format: ADME, microsome; conditions: microsomes, 1 µM
So I've got a bunch of molecules here, and I need their t1/2 values.

## Task Suppose we examine the molecule Cc1nc2c(N)ncnc2n1[C@@H]1O[C@H](CN(C/C=C\CN)CCO)[C@H]2OC(C)(C)O[C@H]21 ; what t1/2 value has been reported?
## Result > 1.5 h

## Task # repeat for CN(C/C=C\CN)C[C@H]1O[C@@H](n2cnc3c(N)ncnc32)[C@H](O)[C@@H]1O
## Result > 1.5 h

## Task # repeat for CCC(=O)NC/C=C\CN(C)C[C@H]1O[C@@H](n2cnc3c(N)ncnc32)[C@H](O)[C@@H]1O
## Result > 1.5 h

## Task # repeat for Cc1nc2c(N)ncnc2n1[C@@H]1O[C@H](CN(C)C/C=C\CN)[C@@H](O)[C@H]1O
## Result > 1.5 h

----------
system: Trypanosoma brucei; test: Antitrypanosomal activity against Trypanosoma brucei Lister 427 bloodstream forms assessed as inhibition of parasite growth incubated for 48 hrs by ATP-bioluminescence cell viability assay; type: functional; conditions: Lister 427, 48 h
pEC50: −log10 of the molar value.
observationType: pEC50

## Task Suppose we examine the compound Cc1nc2c(N)ncnc2n1[C@@H]1O[C@H](CN(C)C/C=C\CNC(=O)OC(C)(C)C)[C@H]2OC(C)(C)O[C@H]21 ; what pEC50 value has been reported?
## Result < 4.60

## Task # repeat for CCCC(=O)NC/C=C\CN(C)C[C@H]1O[C@@H](n2cnc3c(N)ncnc32)[C@H](OC(C)=O)[C@@H]1OC(C)=O
## Result < 4.60

## Task # repeat for Cc1nc2c(N)ncnc2n1[C@@H]1O[C@H](CN(C/C=C\CN)C2CC2)[C@H]2OC(C)(C)O[C@H]21
## Result < 5.52

## Task # repeat for NC/C=C\CN(CCF)C[C@H]1O[C@@H](n2cnc3c(N)ncnc32)[C@H](O)[C@@H]1O
## Result < 4.60
